# Test system: Sprague-Dawley rats
# EXPERIMENTAL PROTOCOL: animal or person
# CONDITIONS: rats
Measured Approximate therapeutic index values are reported for all entries that follow.

Please review the entries below; each comes with its answer.
CCOC(=O)c1c(F)cnn1[C@H](C)c1ccccc1 >6
C=CC1(OC(=O)c2c(F)cnn2[C@H](C)c2ccccc2)COC1 >18

Alright, here's another compound for you.
With Sprague-Dawley rats as the test system, COC(=O)C1=C(OC(=O)c2ccnn2[C@H](C)c2ccccc2)CCC1 showed Approximate therapeutic index of >10

----------
# Test system: Sprague-Dawley rats
# EXPERIMENTAL PROTOCOL: Continuous infusion at 2 times the MIR for 1 hour, Group B compounds
# Assay type: in vivo
# CONDITIONS: continuous infusion 2 x MIR 1 hour; rats affected/rats
ENDPOINT LABEL: Types and incidence of adverse reactions: Tongue stretching

COMPOUND	RESULT
C=C=CC1(OC(=O)c2cnnn2[C@H](C)c2ccccc2)COC1 [Compound B3]	stretching(3/6)
CCOC(=O)c1nnn([C@H](C)c2ccccc2)c1Br [Compound B100]	stretching(3/6)
